# Target or system: human insulin receptor (HIR) (human, UniProt P06213)
# Procedure text: competition
Non-standard residues stand in square brackets, D forms with d. No end group written: not given here. *: point of attachment. Biotin = O=C1N[C@H]2[C@H](CS[C@H]2CCCCC(=O)*)N1; Bpa = N[C@@H](Cc1ccc(C(=O)c2ccccc2)cc1)C(=O)O; Hyp = O=C(O)[C@@H]1C[C@@H](O)CN1; Tic = O=C(O)[C@@H]1Cc2ccccc2CN1; Ac6c = NC1(C(=O)O)CCCCC1; βturn = not defined here
As shown below, each of these binders has a reported Kd value.
Give just the numeric value; nM need not be written.

These recorded examples may help you get a feel for the data.
Binder: IQGWEPFYGWFDDVVAQMFEE [S264]
Measurement kind: Kd
Readout unit: nM
Reported result: 190
--
Binder: SLEEEWAQIQCEVWGRCSESFYDWFERQL [S564]
Measurement kind: Kd
Readout unit: nM
Reported result: 0.013
--
Binder: NFYDWFVAELG [S243]
Measurement kind: Kd
Readout unit: nM
Reported result: 2000
--
Binder: SLEEEWAQVECEVYGRGCSGSLDESFYDWFERQLG [S549]
Measurement kind: Kd
Readout unit: nM
Reported result: 0.013
--
Binder: WLDQEWAWVQCEVYGRGCPSGGSGGSGRVDWLQRNANFYDWFVAELG [S511]
Measurement kind: Kd
Readout unit: nM
Reported result: 3.8

What measured Kd goes with FHENFYDWFVAQVSKK [S108] ?
750

Also S527 (not fully specified; printed as H-Acy-CAQEwGSEL-Tic-QCSGSESFYDWFERQL; ends and bridges not checked) chain 1: H[Ac6c]CAQE[dW]GSEL chain 2: [Tic]QCSGSESFYDWFERQL ?
2.4

Also [dF][dH][dE][dN][dF][dY][dD][dW][dF][dV][dR][dQ][dV][dS][dK][dK] [S114] ?
83000

Also PLCFLQELFGGASLGGYCSG [S262] ?
19000

Also RD[Hyp]FYDWFDD[dI] [S268] ?
450

Also SLEEEWAQIEAEVWGRGAPSESFYDWFERQLG [S574] ?
0.0092

Also FYDWFERQLG [S392] ?
38

Also S233 (listing feature) chain 1: FHENFYDWFVRQVSKKX chain 2: SDGFYNAIELLSX ?
260

Also EHWNTVDPFYFTLFEWLRESG [S177] ?
27000

Also SLEEEWAWVQCEVYGRGCPSESFYDWFERQL [S534] ?
0.01

Also S546 (not fully specified (bridges); cysteine pairing not given here; also: chains 1 and 2 form one continuous chain) chain 1: SLEEEWAQVECEV chain 2: [Bpa]GRGCPSGSLDESFYDWFERQ[Bpa]GK(Biotin) ?
26

Also SLELEWAQVECEVYGRGCPSGSLDESFYDWFERQLG [S539 (printed S519)] ?
0.098

Also SLEEEWAQVECEVYGRGCPSGSLDESFYHWFERQLG [S542] ?
0.027

Also LDRQFYRYFQDLLVGFM [S260] ?
2300

Also S580 (not fully specified (bridges); printed as SLEEEWAQVECEVYGRGC-βturn-ESFYDWFERQLG; ends and bridges not checked; also: chain 1 continues via βturn into chain 2 (C-N fusion)) chain 1: SLEEEWAQVECEVYGRGC-βturn chain 2: ESFYDWFERQLG ?
0.012

Also SLEEEWAQIQHELWPVEKGESFYDWFERQL (not fully specified (N-terminus); ends and bridges not checked) [S605] ?
0.094

Also SLEEEWAQVECEVWGRGCPSGSLDESFYDWFERQLG [S541] ?
0.0078
